test system: HeLa cells; experiment: Cell cycle assay in HeLa cells; assay type: cell-based, human; details: HeLa cells, 150 nM oligomeric compound, 48 hours after treatment; relative to untreated control (UTC=100)
In the oligonucleotide strings, read from the 5' end, every base follows the letter of its sugar. An asterisk marks phosphorothioate; unmarked linkages are phosphodiester. Other units and linkages are bracketed, terminal groups are in braces. A string of capitals states the bases alone. e = 2'-O-(2-methoxyethyl) (MOE); [5mC] = 5-methylcytosine; d = 2'-deoxy (DNA)
PROPERTY: % cells in cell cycle phase: G1 (%)
Your answer is read as %, so omit the unit and give the number.

SUBSTANCE | PROPERTY | EXPERIMENTAL RESULT
328780 (antisense eT*eG*eT*e[5mC]*eA*dT*dG*dG*dA*d[5mC]*dA*dG*dG*dA*dT*eG*eA*eA*eT*eA) [compound 328780] | % cells in cell cycle phase: G1 | 83
338833 (antisense TCGTGCACCTGAGGAGTCTG; all 2'-MOE, all phosphorothioate, methylation of C not given here) [compound 338833] | % cells in cell cycle phase: G1 | 44
341785 (antisense GGAGTGAAGACACGGAGCCAGA; all 2'-MOE, all phosphorothioate, methylation of C not given here) [compound 341785] | % cells in cell cycle phase: G1 | 82
328707 (eG*e[5mC]*eA*eA*e[5mC]*dA*dG*dG*d[5mC]*d[5mC]*dT*d[5mC]*dA*dA*dT*eA*eT*e[5mC]*eT*eT) [compound 328707] | % cells in cell cycle phase: G1 | 46

Asked: Item under review: 338797 (antisense CTGGGGAGGGGGTTAGCGTC; all 2'-MOE, all phosphorothioate, methylation of C not given here) [compound 338797] . Reported % cells in cell cycle phase: G1?
Given back: 66
